Acetylcholinesterase (AChE) (Electrophorus electricus, UniProt O42275) data, read-out Ki
Sequence (O42275 24-633): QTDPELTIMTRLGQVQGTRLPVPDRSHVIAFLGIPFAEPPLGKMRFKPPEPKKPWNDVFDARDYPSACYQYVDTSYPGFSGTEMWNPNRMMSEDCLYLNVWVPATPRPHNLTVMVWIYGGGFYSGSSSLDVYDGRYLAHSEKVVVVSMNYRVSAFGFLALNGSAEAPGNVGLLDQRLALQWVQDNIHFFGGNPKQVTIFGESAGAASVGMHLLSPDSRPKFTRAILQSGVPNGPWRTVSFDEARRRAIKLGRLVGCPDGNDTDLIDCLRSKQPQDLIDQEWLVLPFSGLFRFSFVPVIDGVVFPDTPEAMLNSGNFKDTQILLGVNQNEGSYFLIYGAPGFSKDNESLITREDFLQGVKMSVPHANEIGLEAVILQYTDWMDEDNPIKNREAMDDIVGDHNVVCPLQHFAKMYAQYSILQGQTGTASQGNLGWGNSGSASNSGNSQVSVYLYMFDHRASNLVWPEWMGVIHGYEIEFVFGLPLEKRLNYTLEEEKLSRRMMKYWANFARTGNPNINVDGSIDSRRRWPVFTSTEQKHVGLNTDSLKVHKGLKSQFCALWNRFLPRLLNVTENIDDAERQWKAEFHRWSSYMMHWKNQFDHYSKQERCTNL
// units = nM; emit number, no label

{"columns": ["COMPOUND", "MEASURED TARGET", "UNIT OF MEASUREMENT", "OBSERVED MEASUREMENT"],
 "data": [
  ["COc1ccc(C(=O)C2CCC=C2c2ccc(OC)c(OC)c2OC)c(OC)c1OC (stereo not shown) [Compound 5]", "Acetylcholinesterase (AChE) (Electrophorus electricus, UniProt O42275)", "nM", 87.9],
  ["COc1c(Br)cc(C2CCCC2Cc2c(Br)c(Br)c(OC)c(OC)c2OC)c(OC)c1OC (stereo not shown) [Compound 13]", "Acetylcholinesterase (AChE) (Electrophorus electricus, UniProt O42275)", "nM", 108]
]}

Write down the reported Ki of COc1c(Br)cc(C(=O)C(Br)CCC(Br)C(=O)c2cc(Br)c(OC)c(OC)c2O)c(O)c1OC (stereo not shown) [Compound 9] , test system: Acetylcholinesterase (AChE) (Electrophorus electricus, UniProt O42275). 45.5

Write down the reported Ki of COc1ccc(CC2CCCC2c2ccc(OC)c(OC)c2OC)c(OC)c1OC (stereo not shown) [Compound 11] , test system: Acetylcholinesterase (AChE) (Electrophorus electricus, UniProt O42275). 151

Write down the reported Ki of COc1ccc(C2=C(/C(=N/NC(C)=O)c3ccc(OC)c(OC)c3OC)CCC2)c(OC)c1OC [Compound 10] , test system: Acetylcholinesterase (AChE) (Electrophorus electricus, UniProt O42275). 196

Write down the reported Ki of COc1ccc(C(=O)CCCCC(=O)c2ccc(OC)c(OC)c2OC)c(OC)c1OC [Compound 6] , test system: Acetylcholinesterase (AChE) (Electrophorus electricus, UniProt O42275). 177

---

α-Glucosidase (Saccharomyces cerevisiae) data, read-out pIC50
Sequence (P53341 whole entry): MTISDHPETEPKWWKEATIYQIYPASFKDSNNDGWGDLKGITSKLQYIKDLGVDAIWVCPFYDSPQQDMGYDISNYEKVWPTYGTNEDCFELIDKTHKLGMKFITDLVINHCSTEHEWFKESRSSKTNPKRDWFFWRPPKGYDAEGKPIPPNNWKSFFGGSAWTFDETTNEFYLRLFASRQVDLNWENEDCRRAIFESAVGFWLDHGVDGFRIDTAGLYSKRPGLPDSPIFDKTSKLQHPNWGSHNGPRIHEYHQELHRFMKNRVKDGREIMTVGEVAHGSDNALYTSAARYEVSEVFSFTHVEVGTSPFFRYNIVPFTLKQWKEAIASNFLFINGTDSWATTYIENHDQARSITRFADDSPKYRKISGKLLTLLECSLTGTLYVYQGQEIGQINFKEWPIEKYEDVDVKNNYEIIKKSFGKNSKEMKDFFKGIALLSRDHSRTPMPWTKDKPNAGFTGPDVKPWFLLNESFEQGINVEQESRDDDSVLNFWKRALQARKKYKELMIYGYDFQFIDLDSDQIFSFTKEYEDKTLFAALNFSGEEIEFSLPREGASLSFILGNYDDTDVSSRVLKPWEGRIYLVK
// field semantics: pIC50 = negative decimal log of concentration (mol/L)

Write down the reported pIC50 of COc1ccc(C(=O)C2CCC=C2c2ccc(OC)c(OC)c2OC)c(OC)c1OC (stereo not shown) [Compound 5] , test system: α-Glucosidase (Saccharomyces cerevisiae). 7.40

Write down the reported pIC50 of COc1ccc(C(=O)CCCCC(=O)c2ccc(OC)c(OC)c2OC)c(O)c1OC [Compound 7] , test system: α-Glucosidase (Saccharomyces cerevisiae). 7.36

Write down the reported pIC50 of COc1ccc(C(=O)C2=C(c3ccc(OC)c(OC)c3OC)CCC2)c(OC)c1OC [Compound 4] , test system: α-Glucosidase (Saccharomyces cerevisiae). 7.38

Write down the reported pIC50 of COc1c(Br)cc(C(=O)C(Br)CCC(Br)C(=O)c2cc(Br)c(OC)c(OC)c2O)c(O)c1OC (stereo not shown) [Compound 9] , test system: α-Glucosidase (Saccharomyces cerevisiae). 7.68

Write down the reported pIC50 of COc1c(Br)cc(C2CCCC2Cc2c(Br)c(Br)c(OC)c(OC)c2OC)c(OC)c1OC (stereo not shown) [Compound 13] , test system: α-Glucosidase (Saccharomyces cerevisiae). 7.50

Write down the reported pIC50 of COc1ccc(CC2CCCC2c2ccc(OC)c(OC)c2OC)c(OC)c1OC (stereo not shown) [Compound 11] , test system: α-Glucosidase (Saccharomyces cerevisiae). 7.48

Write down the reported pIC50 of COc1ccc(C(=O)CCCCC(=O)c2ccc(OC)c(OC)c2O)c(O)c1OC [Compound 8] , test system: α-Glucosidase (Saccharomyces cerevisiae). 7.44

Write down the reported pIC50 of COc1c(Br)c(Br)c(CC2CCCC2c2c(Br)c(Br)c(OC)c(OC)c2OC)c(OC)c1OC (stereo not shown) [Compound 12] , test system: α-Glucosidase (Saccharomyces cerevisiae). 7.62

Write down the reported pIC50 of COc1ccc(C(=O)CCCCC(=O)c2ccc(OC)c(OC)c2OC)c(OC)c1OC [Compound 6] , test system: α-Glucosidase (Saccharomyces cerevisiae). 7.56

Write down the reported pIC50 of COc1ccc(C2=C(/C(=N/NC(C)=O)c3ccc(OC)c(OC)c3OC)CCC2)c(OC)c1OC [Compound 10] , test system: α-Glucosidase (Saccharomyces cerevisiae). 7.55
